test: Pharmacokinetic study in ICR mice; type: in vivo; conditions: male, mouse, supernatant of centrifuged blood, IV 1 mg/kg
Readout name: half-life (min)

[P] C[C@@H](CN1CC(C(=O)N2CCN(c3ncc(C(F)(F)F)cn3)CC2)C1)Nc1cn[nH]c(=O)c1C(F)(F)F
[Q] C[C@@H](COCCC(=O)N1CCN(c2ncc(C(F)(F)F)cn2)CC1)Nc1cn[nH]c(=O)c1C(F)(F)F [RBN-2397, reference compound]
Which of these two has the smaller recorded half-life: P or Q ? I would appreciate it if you answered with the label of your choice.
Q
(Q: 9 min, P: 86.4 min)

---

test: Pharmacokinetic study in ICR mice; type: in vivo; conditions: male, mouse, supernatant of centrifuged blood, IV 1 mg/kg
Readout name: Cmax (ng/mL)

[1] C[C@@H](COCCC(=O)N1CCN(c2ncc(C(F)(F)F)cn2)CC1)Nc1cn[nH]c(=O)c1C(F)(F)F [RBN-2397, reference compound]
[2] C[C@@H](CN1CC(C(=O)N2CCN(c3ncc(C(F)(F)F)cn3)CC2)C1)Nc1cn[nH]c(=O)c1C(F)(F)F
Of the two listed items, 1 and 2 , which carries the larger Cmax figure? I would appreciate it if you answered with the label of your choice.
1
(1: 757 ng/mL, 2: 419 ng/mL)

---

biological target: PARP7 (Homo sapiens); construct: purchased BPS Bioscience; experiment: Inhibitory activity of compounds on PARP7 enzyme (PARP7 Chemiluminescent Assay Kit); format: biochemical; details: chemiluminescence, symbols defined as IC50 classes, read-out: 100 nM Inhibition Rate
Sequence (Q7Z3E1 whole entry): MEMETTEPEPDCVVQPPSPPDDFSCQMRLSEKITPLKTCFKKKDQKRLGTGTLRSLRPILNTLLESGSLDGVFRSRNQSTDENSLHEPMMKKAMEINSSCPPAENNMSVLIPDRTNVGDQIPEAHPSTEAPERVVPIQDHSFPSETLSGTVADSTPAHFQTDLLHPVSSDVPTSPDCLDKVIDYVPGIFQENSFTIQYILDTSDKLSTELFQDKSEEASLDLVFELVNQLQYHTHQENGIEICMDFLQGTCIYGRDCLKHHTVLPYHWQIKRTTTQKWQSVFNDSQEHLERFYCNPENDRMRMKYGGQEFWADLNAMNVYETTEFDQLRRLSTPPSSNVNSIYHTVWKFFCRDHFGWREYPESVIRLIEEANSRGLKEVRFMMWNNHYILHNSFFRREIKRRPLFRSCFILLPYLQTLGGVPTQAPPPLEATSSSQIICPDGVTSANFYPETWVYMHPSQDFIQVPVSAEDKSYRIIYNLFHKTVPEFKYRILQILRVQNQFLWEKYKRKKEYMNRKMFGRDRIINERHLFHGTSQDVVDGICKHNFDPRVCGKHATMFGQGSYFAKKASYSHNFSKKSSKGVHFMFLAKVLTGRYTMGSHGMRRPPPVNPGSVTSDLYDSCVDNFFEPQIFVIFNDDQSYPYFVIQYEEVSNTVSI
pIC50: −log10 of the molar value.
Readout name: pIC50

# annotated cases, reported pIC50 shown
CC1CN(c2ncc(C(F)(F)F)cn2)CC(C)N1C(=O)C1CN(C[C@H](C)Nc2cn[nH]c(=O)c2C(F)(F)F)C1 (stereo partly drawn) [I-A-17] = > 7.00
C[C@@H](CN1CC(C(=O)N2CCN(c3ccc4c(c3)OC(F)(F)O4)CC2)C1)Nc1cn[nH]c(=O)c1C(F)(F)F [I-B-1] = > 7.00

// pIC50 value for COc1cnc(N2CCN(C(=O)C3CN(C[C@H](C)Nc4cn[nH]c(=O)c4C(F)(F)F)C3)CC2)nc1 [I-A-9] : > 7.00

// pIC50 value for C[C@@H](CN1CC(C(=O)N2CCN(c3cccc4c3oc3ccccc34)CC2)C1)Nc1cn[nH]c(=O)c1C(F)(F)F [I-A-12] : 6.30 to 7.00

// pIC50 value for C[C@@H](CN1CC(C(=O)N2CCN(c3ncc(C#N)cn3)CC2)C1)Nc1cn[nH]c(=O)c1C(F)(F)F [I-A-3] : > 7.00

// pIC50 value for O=C(C1CN(CC2(Nc3cn[nH]c(=O)c3C(F)(F)F)CC2)C1)N1CCN(c2ncc(C(F)(F)F)cn2)CC1 [I-A-24] : 6.30 to 7.00

// pIC50 value for C[C@@H](CN1CC(C(=O)N2CCN(c3ncc(C(F)(F)F)cn3)CC2)C1)Nc1cn[nH]c(=O)c1Cl [I-A-22] : 6.30 to 7.00

// pIC50 value for C[C@@H](CN1CC(C(=O)N(C)C2CN(c3ncc(C(F)(F)F)cn3)C2)C1)Nc1cn[nH]c(=O)c1C(F)(F)F [I-A-16] : > 7.00

Entry source: patent US20250346579A1
